# assayed.target: S100A10-AnxA2Nter fusion protein [S100A10(1–92)-ENLYFQGD linker-AnxA2 peptide (1–13)]
# experiment.notes: NMR titration
pKd: −log10 of the molar value. Ends that are not written are not given here. * marks the point of attachment. DOTA = O=C(O)CN1CCN(CC(=O)O)CCN(CC(=O)*)CCN(CC(=O)O)CC1
reported.metric: pKd

As a guide, the following entries are already answered.
{DOTA}-GFLHFGKTGSSGPLQ (also: N-terminal DOTA chelated with Y3+) [Y-DOTA-SW]    2.97
Ac-CFLHFGKTGRASDQR [Ac-LW, CEACAM1 long form 15 amino acid peptide]    2.91
Ac-CFLHFGKEGSSGPLQ [Ac-SW-T/E]    2.63
Ac-CFLHFGKTGSSGPLQ [Ac-SW, CEACAM1 short form 15 amino acid peptide]    3.06
Ac-CFLHAGKTGSSGPLQ [Ac-SW-F/A]    2.68

(P) Ac-CFLHFGKEGESGPLQ [Ac-SW-TS/EE]
(Q) Ac-CFLHFGKTGESGPLQ [Ac-SW-S/E]
Problem: Could you please tell me which of these two has the higher pKd: P or Q ? Your answer should be the label attached to the chosen record.
Result: Q
(Q: 2.80, P: 2.45)
